Numbers sourced from patent US20190359687A1.

target: T1, Cynomolgus monkey glycophorin A on Cynomolgus monkey red blood cells (Cynomolgus monkey); assay: FACS, RBC Cy02
T1 construct: whole, on cells; also called Cyno RBC; Cyno GPA
quantity_measured: fluorescence intensity
Response field accepts a number only; no unit should be typed.

Query: Look up fluorescence intensity: Hu6C12-4 (antibody, V domains shown, IgG format; VH.1d + Vk.1) VH: EVQLVQSGAEVKKPGASVKVSCKASGYTFTTYTIHWVRQAPGQGLEWMGYINPSSDYTRYNPKFKDRVTLTTDTSTSTAYMELRSLRSDDTAVYYCQRGTRDYWGQGTTVTVSS VL: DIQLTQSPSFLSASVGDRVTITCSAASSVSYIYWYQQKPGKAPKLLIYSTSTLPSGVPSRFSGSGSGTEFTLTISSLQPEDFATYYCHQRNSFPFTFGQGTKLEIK
Response: 989

Query: Can you handle Hu6C12-9 (antibody, V domains shown, IgG format; VH.1 + Vk.1a) VH: EVQLVQSGAEVKKPGASVKVSCKASGYTFTTYTIHWVRQAPGQGLEWMGYINPSSDYTRYNPKFKDRVTMTTDTSTSTAYMELRSLRSDDTAVYYCARGTRDYWGQGTTVTVSS VL: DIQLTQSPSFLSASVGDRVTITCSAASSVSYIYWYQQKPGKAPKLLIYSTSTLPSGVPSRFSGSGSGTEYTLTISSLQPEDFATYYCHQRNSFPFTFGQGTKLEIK next?
Response: 756

Query: What do you have for 6C12B8/H8 (antibody, V domains shown, mouse IgG1/k from hybridoma; also called 6C12 parental; TPP-3422) VH: RVQLQQSGAELARPGASVKMSCKASGYTFTTYTIHWVKQKTGQGLEWIGYINPSSDYTRYNPKFKDKATLTTDKSSSTAYMKLNSLASDDSAVYYCQTGTRDYWGQGTTLTVSS VL: QIVLTQSPPIMSASPGEKVTMTCSAASSVSYIYWFQQKPGTSPKLWIYSTSTLPSGVPTRFSGSGSGTSYSLTISRMEAEDAATYYCHQRNSFPFTFGSGTKLEIR ?
Response: 2570

Query: Same question for Hu6C12-10 (antibody, V domains shown, IgG format; VH.1a + Vk.1a) VH: EVQLVQSGAEVKKPGASVKVSCKASGYTFTTYTIHWVRQAPGQGLEWMGYINPSSDYTRYNPKFKDRVTMTTDTSTSTAYMELRSLRSDDTAVYYCQRGTRDYWGQGTTVTVSS VL: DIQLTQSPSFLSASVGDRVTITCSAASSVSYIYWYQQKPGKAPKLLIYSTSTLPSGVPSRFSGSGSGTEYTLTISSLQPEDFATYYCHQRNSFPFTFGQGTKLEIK please.
Response: 973
